Source of measurements: ChEMBL document CHEMBL1949646

// reported pIC50 per item
Test system: MDA-MB-231
Assay text: Cytotoxicity against human estrogen receptor-negative MDA-MB-231 cells after 48 hrs by MTT assay
Type: functional, cell-based
Condition parameters: MDA-MB-231, 48 h
Would you please state pIC50, meaning minus log10 of the concentration in mol/L, as a bare number?

>  <Compound>
Cc1noc2c1N=C(c1ccc([N+](=O)[O-])cc1)CC(c1cc(Cc3ccc(O)c(C4CC(c5ccc([N+](=O)[O-])cc5)=Nc5c(C)noc5C4)c3)ccc1O)C2 (centres undefined)

>  <pIC50>
4.27

$$$$
>  <Compound>
Cc1noc2c1N=C(c1ccco1)CC(c1cc(Cc3ccc(O)c(C4CC(c5ccco5)=Nc5c(C)noc5C4)c3)ccc1O)C2 (centres undefined)

>  <pIC50>
4.99

$$$$
>  <Compound>
Cc1ccc(C2=Nc3c(C)noc3CC(c3cc(Cc4ccc(O)c(C5CC(c6ccc(C)cc6)=Nc6c(C)noc6C5)c4)ccc3O)C2)cc1 (centres undefined)

>  <pIC50>
4.21

$$$$
>  <Compound>
Cc1noc2c1N=C(c1ccccc1O)CC(c1cc(Cc3ccc(O)c(C4CC(c5ccccc5O)=Nc5c(C)noc5C4)c3)ccc1O)C2 (centres undefined)

>  <pIC50>
4.20

$$$$
>  <Compound>
Cc1noc2c1N=C(c1ccc(Cl)cc1)CC(c1cc(Cc3ccc(O)c(C4CC(c5ccc(Cl)cc5)=Nc5c(C)noc5C4)c3)ccc1O)C2 (centres undefined)

>  <pIC50>
4.28

$$$$
>  <Compound>
Cc1noc2c1N=C(c1ccccc1)CC(c1cc(Cc3ccc(O)c(C4CC(c5ccccc5)=Nc5c(C)noc5C4)c3)ccc1O)C2 (centres undefined)

>  <pIC50>
4.08

$$$$
>  <Compound>
Cc1noc2c1N=C(c1cccs1)CC(c1cc(Cc3ccc(O)c(C4CC(c5cccs5)=Nc5c(C)noc5C4)c3)ccc1O)C2 (centres undefined)

>  <pIC50>
4.74

$$$$
>  <Compound>
COc1ccc(C2=Nc3c(C)noc3CC(c3cc(Cc4ccc(O)c(C5CC(c6ccc(OC)cc6)=Nc6c(C)noc6C5)c4)ccc3O)C2)cc1 (centres undefined)

>  <pIC50>
4.24

$$$$

Moving on to another compound below.
Request: Bench note: what pIC50 did Cc1noc2c1N=C(c1ccc(Br)cc1)CC(c1cc(Cc3ccc(O)c(C4CC(c5ccc(Br)cc5)=Nc5c(C)noc5C4)c3)ccc1O)C2 (centres undefined) show?
Response: 4.29
